Target: human heterooctameric PRMT5:MEP50 enzyme complex (Homo sapiens)
Sequence (O14744 whole entry): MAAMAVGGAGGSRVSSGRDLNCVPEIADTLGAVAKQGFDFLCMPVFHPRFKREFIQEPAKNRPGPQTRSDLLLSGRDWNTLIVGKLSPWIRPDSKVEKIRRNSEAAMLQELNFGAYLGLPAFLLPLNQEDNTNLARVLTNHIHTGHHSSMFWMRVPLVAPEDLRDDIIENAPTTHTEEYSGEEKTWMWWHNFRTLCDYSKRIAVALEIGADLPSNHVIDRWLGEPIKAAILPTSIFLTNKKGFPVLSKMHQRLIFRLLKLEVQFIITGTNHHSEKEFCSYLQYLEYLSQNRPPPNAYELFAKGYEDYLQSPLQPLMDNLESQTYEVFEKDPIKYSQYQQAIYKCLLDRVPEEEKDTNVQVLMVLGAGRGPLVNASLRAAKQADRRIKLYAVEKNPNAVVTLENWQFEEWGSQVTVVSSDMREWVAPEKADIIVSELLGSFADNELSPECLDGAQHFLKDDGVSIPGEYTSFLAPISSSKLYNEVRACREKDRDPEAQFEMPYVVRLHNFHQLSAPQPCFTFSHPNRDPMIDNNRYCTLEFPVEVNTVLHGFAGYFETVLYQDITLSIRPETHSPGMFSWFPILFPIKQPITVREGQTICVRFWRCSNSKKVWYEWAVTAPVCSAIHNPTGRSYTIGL
Sequence (Q9BQA1 whole entry partner): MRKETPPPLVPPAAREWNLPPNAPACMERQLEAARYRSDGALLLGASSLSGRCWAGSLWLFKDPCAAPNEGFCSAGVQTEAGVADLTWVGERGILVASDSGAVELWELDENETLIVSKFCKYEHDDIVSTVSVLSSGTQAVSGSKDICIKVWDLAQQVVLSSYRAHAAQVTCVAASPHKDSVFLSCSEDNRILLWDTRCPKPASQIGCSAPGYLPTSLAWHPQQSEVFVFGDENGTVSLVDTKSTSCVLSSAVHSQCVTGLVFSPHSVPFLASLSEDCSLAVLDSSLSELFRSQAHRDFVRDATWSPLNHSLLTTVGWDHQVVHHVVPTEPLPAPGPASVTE
Experiment: biochemical
pIC50: −log10 of the molar value.

input_smiles	pIC50
C#CCN1CC[C@@]2(C1=O)c1ccc(F)cc1C(=O)N2Cc1cc2nc(N)c(F)cc2[nH]1	7.21

====

Test system: HCT116 WT cells
Test: PRMT5 cell SDMA assay, MTAP WT cells
Format: cell-based
Details: Homo sapiens, HCT-116, column 5; read-out: Cell SDMA IC50, HCT116 wild type cells

compound	IC50
C#CCN1CC[C@@]2(C1=O)c1ccc(F)cc1C(=O)N2Cc1cc2nc(N)c(F)cc2[nH]1 [Example 3]	560 nM
